- Study Target: T-type calcium channel (Homo sapiens)
- Protocol Description: T-type channel blocking, FLIPR data (Table 6)
- Type: cell-based
- Condition Description: CAv3.2, ratio closed/inactivated IC50
Property Measured: CAv3.2 IC50 Ratio closed/inact.
Give your answer as a number; write no unit.

1. CC(C)([C@H]1C[C@@H](NC(=O)c2ccc(Cl)c(F)c2)C1)S(=O)(=O)c1cc(F)cc(C(F)(F)F)c1 [Compound 589]
3.9

Now let's try a different one.
I am curious: what CAv3.2 IC50 Ratio closed/inact. value has been reported for CC(C)([C@H]1C[C@H](NS(=O)(=O)c2ccc(Cl)c(F)c2)C1)S(=O)(=O)c1cc(F)cc(C(F)(F)F)c1 [Compound 607] ? 2.7

* * *

- Study Target: UniProtKB O43497
- Sequence (O43497 whole entry): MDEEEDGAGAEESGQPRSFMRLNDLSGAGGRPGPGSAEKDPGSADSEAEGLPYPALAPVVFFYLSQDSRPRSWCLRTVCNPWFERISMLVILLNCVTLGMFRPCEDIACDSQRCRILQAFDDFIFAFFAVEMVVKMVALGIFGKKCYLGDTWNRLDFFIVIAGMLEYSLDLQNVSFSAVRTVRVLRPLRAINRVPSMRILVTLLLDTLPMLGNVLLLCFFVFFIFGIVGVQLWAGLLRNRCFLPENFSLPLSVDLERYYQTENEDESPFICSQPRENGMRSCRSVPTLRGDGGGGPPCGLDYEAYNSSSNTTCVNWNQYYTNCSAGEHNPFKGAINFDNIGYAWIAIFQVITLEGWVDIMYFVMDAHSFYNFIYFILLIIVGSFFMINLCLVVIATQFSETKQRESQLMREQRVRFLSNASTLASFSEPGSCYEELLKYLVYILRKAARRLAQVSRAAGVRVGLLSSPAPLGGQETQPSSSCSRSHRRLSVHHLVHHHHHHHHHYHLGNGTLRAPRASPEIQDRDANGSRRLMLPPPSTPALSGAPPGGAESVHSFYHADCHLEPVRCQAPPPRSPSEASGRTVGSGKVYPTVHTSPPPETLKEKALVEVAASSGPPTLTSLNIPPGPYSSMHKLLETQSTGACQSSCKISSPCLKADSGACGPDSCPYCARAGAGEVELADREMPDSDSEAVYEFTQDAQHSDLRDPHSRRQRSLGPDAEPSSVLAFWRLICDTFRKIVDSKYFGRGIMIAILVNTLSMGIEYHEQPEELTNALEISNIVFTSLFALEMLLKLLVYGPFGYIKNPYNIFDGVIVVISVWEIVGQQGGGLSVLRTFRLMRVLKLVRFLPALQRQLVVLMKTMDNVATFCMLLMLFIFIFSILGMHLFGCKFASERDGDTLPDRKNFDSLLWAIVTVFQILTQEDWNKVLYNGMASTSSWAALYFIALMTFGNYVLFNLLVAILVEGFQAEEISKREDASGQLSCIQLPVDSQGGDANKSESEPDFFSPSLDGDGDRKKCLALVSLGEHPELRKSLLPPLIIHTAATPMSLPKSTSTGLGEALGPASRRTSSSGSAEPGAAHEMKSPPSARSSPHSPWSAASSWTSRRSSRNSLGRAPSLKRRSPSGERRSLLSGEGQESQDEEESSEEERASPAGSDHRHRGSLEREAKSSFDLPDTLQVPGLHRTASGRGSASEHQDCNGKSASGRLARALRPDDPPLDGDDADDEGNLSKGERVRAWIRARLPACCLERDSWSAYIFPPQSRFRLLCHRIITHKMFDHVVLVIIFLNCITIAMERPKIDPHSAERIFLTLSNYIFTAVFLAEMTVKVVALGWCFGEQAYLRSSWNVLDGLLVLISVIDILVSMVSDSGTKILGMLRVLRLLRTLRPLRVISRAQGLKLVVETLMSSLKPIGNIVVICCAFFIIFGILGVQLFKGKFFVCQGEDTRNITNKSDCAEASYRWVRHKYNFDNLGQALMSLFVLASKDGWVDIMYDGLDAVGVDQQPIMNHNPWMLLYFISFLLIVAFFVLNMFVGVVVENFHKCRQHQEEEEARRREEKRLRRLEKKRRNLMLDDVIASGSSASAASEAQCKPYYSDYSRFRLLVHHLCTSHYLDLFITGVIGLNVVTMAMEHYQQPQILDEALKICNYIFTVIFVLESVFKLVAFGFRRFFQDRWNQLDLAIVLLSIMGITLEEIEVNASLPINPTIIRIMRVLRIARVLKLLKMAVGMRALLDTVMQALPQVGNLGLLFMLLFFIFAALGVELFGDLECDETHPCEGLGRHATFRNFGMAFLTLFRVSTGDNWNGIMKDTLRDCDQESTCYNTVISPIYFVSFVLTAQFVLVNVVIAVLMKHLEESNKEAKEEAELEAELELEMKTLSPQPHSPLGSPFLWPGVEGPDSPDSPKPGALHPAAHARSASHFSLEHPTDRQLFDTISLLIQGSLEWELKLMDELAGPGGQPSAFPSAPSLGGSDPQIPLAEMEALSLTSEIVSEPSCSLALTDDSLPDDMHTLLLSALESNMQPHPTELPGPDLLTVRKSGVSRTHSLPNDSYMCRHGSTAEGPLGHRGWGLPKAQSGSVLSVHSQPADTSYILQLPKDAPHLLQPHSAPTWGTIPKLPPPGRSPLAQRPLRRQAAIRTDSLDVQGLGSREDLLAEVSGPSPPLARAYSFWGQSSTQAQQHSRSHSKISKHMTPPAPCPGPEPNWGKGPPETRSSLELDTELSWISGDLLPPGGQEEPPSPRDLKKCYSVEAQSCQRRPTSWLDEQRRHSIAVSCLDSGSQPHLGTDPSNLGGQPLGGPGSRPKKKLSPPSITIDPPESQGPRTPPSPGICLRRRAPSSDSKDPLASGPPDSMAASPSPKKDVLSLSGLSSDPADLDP
- Protocol Description: T-type calcium channel block, whole cell patch clamp, α1G
- Condition Description: HEK cells stably expressing human α1G; mainly non-inactivated protocol; values above 10,000 nM represented as 10000
Property Measured: IC50 (µM)
Report only the number, with the unit µM understood.

Past entries and their recorded results:
1) O=C(NC[C@H]1C[C@@H](S(=O)(=O)c2cccc(C(F)(F)F)c2)C1)c1ccc(F)c(C(F)(F)F)c1 [Compound 377]
2.34
2) O=C(CNCC1CC(S(=O)(=O)c2cccc(C(F)(F)F)c2)C1)NC1CCCCC1 (stereo not shown) [Compound 97]
2.14
3) O=C(N[C@H]1CC[C@@H](S(=O)(=O)c2cc(F)cc(C(F)(F)F)c2)CC1)c1ccc(F)c(Cl)c1 [Compound 320]
0.29

I am curious: what IC50 value has been reported for CN(CCC(C)(C)S(=O)(=O)c1cccc(C(F)(F)F)c1)C(=O)c1ccc(F)c(C(F)(F)F)c1 [Compound 510] ? 0.17

* * *

- Study Target: human α1H T-type channels (Homo sapiens, UniProt O95180)
- Sequence (O95180 whole entry): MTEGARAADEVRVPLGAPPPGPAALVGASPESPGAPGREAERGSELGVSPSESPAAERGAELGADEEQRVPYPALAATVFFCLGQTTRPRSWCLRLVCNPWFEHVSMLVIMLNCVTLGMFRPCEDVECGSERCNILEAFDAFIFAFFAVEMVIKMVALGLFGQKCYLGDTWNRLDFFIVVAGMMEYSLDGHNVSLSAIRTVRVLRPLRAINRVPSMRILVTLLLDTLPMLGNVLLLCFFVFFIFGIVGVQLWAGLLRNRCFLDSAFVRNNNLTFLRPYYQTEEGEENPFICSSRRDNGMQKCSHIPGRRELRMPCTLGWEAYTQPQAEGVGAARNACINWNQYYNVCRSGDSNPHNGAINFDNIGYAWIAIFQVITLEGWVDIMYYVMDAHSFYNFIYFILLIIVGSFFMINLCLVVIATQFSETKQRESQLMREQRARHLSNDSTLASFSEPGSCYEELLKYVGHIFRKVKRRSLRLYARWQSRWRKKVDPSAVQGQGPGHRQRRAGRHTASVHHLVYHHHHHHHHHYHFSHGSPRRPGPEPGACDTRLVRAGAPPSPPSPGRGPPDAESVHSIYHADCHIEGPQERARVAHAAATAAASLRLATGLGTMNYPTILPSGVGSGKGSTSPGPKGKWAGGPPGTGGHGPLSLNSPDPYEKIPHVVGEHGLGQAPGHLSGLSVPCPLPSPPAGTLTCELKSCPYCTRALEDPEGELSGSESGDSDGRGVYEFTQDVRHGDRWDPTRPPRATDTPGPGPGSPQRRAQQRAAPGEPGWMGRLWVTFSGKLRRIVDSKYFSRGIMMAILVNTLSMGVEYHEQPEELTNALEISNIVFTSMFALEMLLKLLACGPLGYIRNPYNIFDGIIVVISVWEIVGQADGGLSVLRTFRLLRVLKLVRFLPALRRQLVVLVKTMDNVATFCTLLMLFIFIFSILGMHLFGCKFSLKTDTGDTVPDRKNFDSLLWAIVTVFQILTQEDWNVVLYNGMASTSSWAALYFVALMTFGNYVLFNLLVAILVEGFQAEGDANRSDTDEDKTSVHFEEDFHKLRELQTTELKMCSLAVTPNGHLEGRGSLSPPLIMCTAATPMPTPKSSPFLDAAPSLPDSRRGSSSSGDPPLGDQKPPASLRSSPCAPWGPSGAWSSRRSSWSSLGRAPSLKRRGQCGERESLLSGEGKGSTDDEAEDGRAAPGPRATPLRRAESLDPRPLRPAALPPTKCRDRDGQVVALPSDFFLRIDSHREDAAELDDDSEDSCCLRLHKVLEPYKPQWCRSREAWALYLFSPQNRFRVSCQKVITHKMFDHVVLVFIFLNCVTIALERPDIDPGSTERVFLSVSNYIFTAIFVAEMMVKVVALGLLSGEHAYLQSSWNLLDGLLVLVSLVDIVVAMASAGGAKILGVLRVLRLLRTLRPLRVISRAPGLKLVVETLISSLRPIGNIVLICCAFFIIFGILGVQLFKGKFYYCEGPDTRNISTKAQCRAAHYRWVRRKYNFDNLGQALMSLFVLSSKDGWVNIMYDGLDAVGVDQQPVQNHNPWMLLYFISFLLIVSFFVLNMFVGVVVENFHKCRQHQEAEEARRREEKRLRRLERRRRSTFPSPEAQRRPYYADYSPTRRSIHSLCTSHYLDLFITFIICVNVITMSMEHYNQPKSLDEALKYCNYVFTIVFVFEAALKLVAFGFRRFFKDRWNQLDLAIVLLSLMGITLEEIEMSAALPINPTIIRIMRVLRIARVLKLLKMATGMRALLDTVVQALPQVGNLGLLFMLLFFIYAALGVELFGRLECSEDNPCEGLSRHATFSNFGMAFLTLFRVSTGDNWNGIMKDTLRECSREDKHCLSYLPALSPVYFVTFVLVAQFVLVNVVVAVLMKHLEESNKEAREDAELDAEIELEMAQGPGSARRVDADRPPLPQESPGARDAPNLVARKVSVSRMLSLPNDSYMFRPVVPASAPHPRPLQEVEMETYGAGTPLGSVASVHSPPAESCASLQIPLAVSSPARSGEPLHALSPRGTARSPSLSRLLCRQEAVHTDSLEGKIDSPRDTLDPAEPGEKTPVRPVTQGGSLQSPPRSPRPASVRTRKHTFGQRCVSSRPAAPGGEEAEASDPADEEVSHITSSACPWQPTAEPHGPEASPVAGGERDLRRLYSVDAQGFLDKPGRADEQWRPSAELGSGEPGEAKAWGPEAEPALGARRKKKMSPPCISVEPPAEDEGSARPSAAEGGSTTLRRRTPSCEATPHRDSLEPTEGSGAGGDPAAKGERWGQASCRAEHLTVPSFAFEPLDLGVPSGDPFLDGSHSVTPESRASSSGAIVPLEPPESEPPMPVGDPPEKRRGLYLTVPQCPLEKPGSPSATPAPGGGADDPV
- Protocol Description: T-type calcium channel block, whole cell patch clamp, α1H
- Condition Description: HEK cells stably expressing human α1H; mainly non-inactivated protocol; values above 10,000 nM represented as 10000
Property Measured: pIC50
Worth noting: pIC50 values are minus log10 of concentrations stated in mol/L.

1) COc1cc(F)cc(C(=O)N[C@H]2CC[C@H](S(=O)(=O)c3cccc(C(F)(F)F)c3)CC2)c1 [Compound 59]
5.09
2) COc1cc(C(=O)NCC2(C)CCC(F)(S(=O)(=O)c3cccc(C(F)(F)F)c3)CC2)cc(Cl)n1 (stereo not shown) [Compound 158]
5.14

I am curious: what pIC50 value has been reported for CC(C)(CNS(=O)(=O)c1ccc(C(F)(F)F)cc1Cl)S(=O)(=O)c1cccc(C(F)(F)F)c1 [Compound 498] ? 5.86

* * *

- Study Target: T-type calcium channel (Homo sapiens, UniProt O95180)
- Protocol Description: T-type channel blocking, FLIPR data (Table 6)
- Assay type: cell-based
- Condition Description: CAv3.2, closed state, read-out: CAv3.2 IC50 Closed
Measured pIC50 of individual entries
Worth noting: pIC50 values are minus log10 of concentrations stated in mol/L.

1. CC(C)(C1CC(CNC(=O)c2ccnc(C(F)(F)F)c2)C1)S(=O)(=O)c1cccc(C(F)(F)F)c1 (stereo not drawn)
5.26

Quick check: pIC50 on T-type calcium channel (Homo sapiens, UniProt O95180), item CC(C)([C@H]1C[C@@H](C(=O)Nc2cc(C(F)(F)F)n[nH]2)C1)S(=O)(=O)c1cccc(C(F)(F)F)c1 ? 5.22

Quick check: pIC50 on T-type calcium channel (Homo sapiens, UniProt O95180), item CC(C)([C@H]1C[C@H](C(=O)Nc2ccc(C(F)(F)F)cc2Cl)C1)S(=O)(=O)c1cccc(C(F)(F)F)c1 ? 5.15

Quick check: pIC50 on T-type calcium channel (Homo sapiens, UniProt O95180), item CC(C)(C[C@H]1C[C@@H](NC(=O)c2ccc(C(F)(F)F)cc2)C1)S(=O)(=O)c1cccc(C(F)(F)F)c1 ? 6.24

Quick check: pIC50 on T-type calcium channel (Homo sapiens, UniProt O95180), item CC(C)([C@H]1C[C@@H](NC(=O)c2ccc(OCC(F)(F)F)nc2)C1)S(=O)(=O)c1cccc(C(F)(F)F)c1 ? 5.36
